Target: recombinant human PAI-1 (Homo sapiens)
Construct: purchased Molecular Innovations, Inc
Assay: Test Example 1: human PAI-1 inhibitory activity (tPA fluorogenic substrate, pH 7.5 Tris buffer)
Assay type: biochemical
Conditions: Compound Concentration 5 μM; Tris buffer
Procedure: 50 mM Tris, 150 mM NaCl, 10 μg/ml BSA, 0.01% Tween80 (SIGMA-ALDRICH Corporation)
MEASUREMENT_LABEL: Inhibition Rate of PAI-1 Activity (%)

O=C(O)C(=O)N(Cc1ccc(Cl)cc1)c1ccc(-c2ccc(OC(F)(F)F)cc2)cc1 [Compound 124] = 22

[a] CC(C)(C)c1ccc(CN(C(=O)C(=O)O)c2c(Cl)cc(-c3ccc(OC(F)(F)F)cc3)cc2Cl)cc1 [Compound 173]
[b] O=C(O)CCc1cc(-c2ccc(OC(F)(F)F)cc2)ccc1OCc1ccc(-c2ccccc2)cc1 [Compound 29]
Problem: Given the entries a and b , determine which has the lower reported Inhibition Rate of PAI-1 Activity (%). State your choice using its label.
b

* * *

Molecular target: recombinant human PAI-1 (Homo sapiens)
Construct: purchased Molecular Innovations, Inc
Assay: Test Example 2: human PAI-1 inhibitory activity (tPA fluorogenic substrate, pH 7.4 HEPES buffer)
Format: biochemical
Conditions: human PAI-1; compound concentration 0.3 μM
MEASUREMENT_LABEL: Inhibition Rate of PAI-1 Activity (%)

Before answering, review these 3 worked examples.
CC(C)(C)c1ccc(Oc2cc(-c3ccccc3OC(F)(F)F)ccc2OCC(=O)O)cc1 [Compound 456] = 13
CCCCCCCOc1cc(-c2ccc(OC(F)(F)F)cc2)cc(OCCCCCCC)c1OCC(=O)O [Compound 425] = 54
CC(C)(C)c1ccc(Oc2cc(-c3ccc4ccccc4c3)ccc2/C=C/C(=O)O)cc1 [Compound 469] = 22

[1] Cc1cc(C)cc(Oc2cc(-c3ccc(C(C)(C)C)cc3)ccc2CCC(=O)O)c1 [Compound 499]
[2] CCCCCOc1ccc(-c2ccc(OC(F)(F)F)cc2)cc1N(CCCCc1cc(C)ccc1C)C(=O)C(=O)O [Compound 670]
Form field 'greater Inhibition Rate of PAI-1 Activity (%)' accepts 1 or 2 ; which applies? Indicate which entry you chose by stating its label.
2
(2: 55%, 1: 14%)

* * *

Molecular target: recombinant human PAI-1 (Homo sapiens)
Construct: purchased Molecular Innovations, Inc
Test: Test Example 2: human PAI-1 inhibitory activity (tPA fluorogenic substrate, pH 7.4 HEPES buffer)
Format: biochemical
Settings: human PAI-1; compound concentration 1 μM
MEASUREMENT_LABEL: Inhibition Rate of PAI-1 Activity (%)

CC(C)(C)c1ccc(Oc2ccc(-c3ccc(C(C)(C)C)cc3)cc2OCC(=O)O)cc1 = 96
CC(C)c1ccc(-c2ccc(OCC(=O)O)c(Oc3ccc(C(C)(C)C)cc3)c2)cc1 = 89
CC(C)(C)c1ccc(Oc2ccc(Nc3ccc(OC(F)(F)F)cc3)cc2/C=C/C(=O)O)cc1 = 77
CCCCc1ccc(Oc2cc(-c3ccc(OC(F)(F)F)cc3)ccc2OCC(=O)O)cc1 = 70
CCCCCOc1cc(-c2ccc(OC(F)(F)F)cc2)ccc1CN(CC(=O)O)c1ccc(C(C)(C)C)cc1 = 96
CC(C)(C)c1ccc(Oc2cc(-c3cc(Cl)ccc3Cl)ccc2CCC(=O)O)cc1 = 73

* * *

Biological target: recombinant human PAI-1 (Homo sapiens)
Construct: purchased Molecular Innovations, Inc
Experiment: Test Example 2: human PAI-1 inhibitory activity (tPA fluorogenic substrate, pH 7.4 HEPES buffer)
Format: biochemical
Details: human PAI-1; calculated from the inhibition rates
MEASUREMENT_LABEL: IC50 (nM)

CC(C)(Oc1cccc(-c2ccc(OC(F)(F)F)cc2)c1OCc1ccc(C(C)(C)C)cc1)C(=O)O = 1010
CC(C)(C)c1cccc(Oc2cc(-c3ccc(OC(F)(F)F)cc3)ccc2CCC(=O)O)c1 = 1080
CC(C)(C)c1ccc(COc2ccc(-c3ccc(OC(F)(F)F)cc3)cc2OCC(=O)O)cc1 = 1070
CC(C)(C)c1ccc(Oc2cc(-c3ccc(OC(F)(F)F)cc3)ccc2CCC(=O)O)cc1 = 1060
CC(C)(C)c1ccc(Oc2ccc(-c3cccc(C(F)(F)F)c3)cc2OCC(=O)O)cc1 = 1860
CC(C)(C)c1ccc(Oc2ccc(-c3ccc(OC(F)(F)F)cc3)cc2OCC(=O)O)cc1 [Compound 328] = 1460
CCCCC(c1ccc(C(C)(C)C)cc1)N(C(=O)C(=O)O)c1ccc(-c2ccc(OC(F)(F)F)cc2)cc1 (stereo not shown) = 930
CCC(CC)Oc1ccc(N(CCCc2ccccc2)C(=O)C(=O)O)cc1-c1ccc(OC(F)(F)F)cc1 = 1320
O=C(O)CCc1cc(-c2ccc(OC(F)(F)F)cc2)ccc1OCCCCc1ccccc1 = 1320
CC(C)c1ccc(Oc2ccc(CCC(=O)O)c(Oc3ccc(C(C)C)cc3)c2)cc1 = 1270

* * *

Target: recombinant human PAI-1 (Homo sapiens, UniProt P05121)
Construct: purchased Molecular Innovations, Inc
Sequence (P05121 24-402): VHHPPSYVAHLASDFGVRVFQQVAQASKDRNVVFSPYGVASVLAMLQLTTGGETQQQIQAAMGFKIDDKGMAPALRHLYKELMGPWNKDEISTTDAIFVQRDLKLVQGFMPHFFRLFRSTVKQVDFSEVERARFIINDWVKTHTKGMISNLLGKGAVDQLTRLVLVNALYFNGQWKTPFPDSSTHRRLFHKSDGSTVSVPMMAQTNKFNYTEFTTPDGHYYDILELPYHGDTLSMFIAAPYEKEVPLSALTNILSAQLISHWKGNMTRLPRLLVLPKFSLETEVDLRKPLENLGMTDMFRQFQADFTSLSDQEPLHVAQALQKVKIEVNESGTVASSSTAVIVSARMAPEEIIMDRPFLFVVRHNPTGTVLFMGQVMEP
Test: Test Example 2: human PAI-1 inhibitory activity (tPA fluorogenic substrate, pH 7.4 HEPES buffer)
Assay type: biochemical
Conditions: human PAI-1; compound concentration 0.3 μM
MEASUREMENT_LABEL: Inhibition Rate of PAI-1 Activity (%)

The following compounds have reported results that may help.
CC(C)(C)c1ccc(Sc2cc(-c3ccc(OC(F)(F)F)cc3)ccc2CCC(=O)O)cc1 [Compound 517] = 50
CCCCOc1ccc(-c2ccc(OCC(=O)O)c(Oc3ccc(C(C)(C)C)cc3)c2)cc1 [Compound 468] = 5

[P] CCCCCCOc1cc(-c2ccc(OC(F)(F)F)cc2)ccc1OC(CCCCCC)C(=O)O (stereo not drawn) [Compound 430]
[Q] CCC(CC)Oc1ccc(-c2ccc(CCC(=O)O)c(Oc3ccc(C(C)(C)C)cc3)c2)cc1 [Compound 522]
[R] CC(Oc1cc(-c2ccc(OC(F)(F)F)cc2)ccc1CCC(=O)O)c1ccccc1 (stereo not drawn) [Compound 501]
[S] CC(C)(C)c1ccc(Oc2cc(-c3cccc([N+](=O)[O-])c3)ccc2OCC(=O)O)cc1 [Compound 485]
List from greatest to least Inhibition Rate of PAI-1 Activity (%). Your answer should be the labels, listed in the requested order.
Q, P, S, R
(Q: 71%, P: 15%, S: 6%, R: 0%)

* * *

Entries and their Inhibition Rate of PAI-1 Activity (%)
Biological target: recombinant human PAI-1 (Homo sapiens, UniProt P05121)
Construct: purchased Molecular Innovations, Inc
Assay: Test Example 2: human PAI-1 inhibitory activity (tPA fluorogenic substrate, pH 7.4 HEPES buffer)
Format: biochemical
Conditions: human PAI-1; compound concentration 1 μM

Please review the entries below; each comes with its answer.
CCCCCCCCOc1ccc(-c2ccc(OC(F)(F)F)cc2)cc1N(CCCCc1ccccc1)C(=O)C(=O)O = >99%
CCCCc1ccc(Oc2cc(-c3ccc(OC(F)(F)F)cc3)ccc2/C=C/C(=O)O)cc1 = >99%

Pending molecule:
Answer with the recorded Inhibition Rate of PAI-1 Activity (%) of `CCCCCCOc1ccc(-c2ccc(OC(F)(F)F)cc2)cc1N(CCCCc1ccccc1)C(=O)C(=O)O` only.
>99%

FYI, the data here is from patent US8633245B2.
